System: BJ
Assay: Selectivity index, ratio of IC50 for human BJ cells to IC50 for human K562-TAX cells
Type: functional
// label = rule met if Ratio IC50 is not less than 4, otherwise rule not met

Hi team, for Cc1ccc(O)c(/C=N/NC(=O)c2ccc3c4c(ccc3c2)N2Cc3c(ccc5cc(C(=O)N/N=C/c6cc(C)ccc6O)ccc35)N(C4)C2)c1 , is the recorded Ratio IC50 at or above 4?
rule not met

----------
Assay: Metal chelating activity of the compound assessed as formation of Mg2+ complex by UV-vis spectrometry
Assay type: physicochemical
metricName: Activity

smi=O=C(N/N=C/c1nccc2ccccc12)c1ccc2c3c(ccc2c1)N1Cc2c(ccc4cc(C(=O)N/N=C/c5nccc6ccccc56)ccc24)N(C3)C1 endpointvalue="Not Active"
smi=O=C(NN=C(c1ccccn1)c1ccccn1)c1ccc2c3c(ccc2c1)N1Cc2c(ccc4cc(C(=O)NN=C(c5ccccn5)c5ccccn5)ccc24)N(C3)C1 endpointvalue="Not Active"
smi=O=C(N/N=C/c1cc(Cl)ccc1O)c1ccc2c3c(ccc2c1)N1Cc2c(ccc4cc(C(=O)N/N=C/c5cc(Cl)ccc5O)ccc24)N(C3)C1 endpointvalue="Not Active"
smi=COC(=O)c1ccc(O)c(/C=N/NC(=O)c2ccc3c4c(ccc3c2)N2Cc3c(ccc5cc(C(=O)N/N=C/c6cc(C(=O)OC)ccc6O)ccc35)N(C4)C2)c1 endpointvalue="Not Active"

----------
Tested on: CCRF-CEM
Test: Induction of apoptosis in human CCRF-CEM cells assessed as inhibition of DNA synthesis at 5 times IC50 after 24 hrs by propidium iodide/BrdU staining by flow cytometry
Format: functional
Parameters: scale not given: the % may be the effect or the level left
metricName: Activity (%)
Response body: numeric value in %, unit text excluded.

Guide cases for Activity, answers given:
smi=Cc1ccc(O)c(/C=N/NC(=O)c2ccc3c4c(ccc3c2)N2Cc3c(ccc5cc(C(=O)N/N=C/c6cc(C)ccc6O)ccc35)N(C4)C2)c1 endpointvalue=5.17
smi=COc1ccc(O)c(/C=N/NC(=O)c2ccc3c4c(ccc3c2)N2Cc3c(ccc5cc(C(=O)N/N=C/c6cc(OC)ccc6O)ccc35)N(C4)C2)c1 endpointvalue=31.78
smi=O=C(N/N=C/c1cc(O)ccc1O)c1ccc2c3c(ccc2c1)N1Cc2c(ccc4cc(C(=O)N/N=C/c5cc(O)ccc5O)ccc24)N(C3)C1 endpointvalue=55.96
smi=O=C(N/N=C/c1ccccc1O)c1ccc2c3c(ccc2c1)N1Cc2c(ccc4cc(C(=O)N/N=C/c5ccccc5O)ccc24)N(C3)C1 endpointvalue=5.94
smi=COC(=O)c1ccc(O)c(/C=N/NC(=O)c2ccc3c4c(ccc3c2)N2Cc3c(ccc5cc(C(=O)N/N=C/c6cc(C(=O)OC)ccc6O)ccc35)N(C4)C2)c1 endpointvalue=54.61
smi=O=C(NN=C(c1ccccn1)c1ccccn1)c1ccc2c3c(ccc2c1)N1Cc2c(ccc4cc(C(=O)NN=C(c5ccccn5)c5ccccn5)ccc24)N(C3)C1 endpointvalue=55.69
smi=O=C(N/N=C/c1cc(F)ccc1O)c1ccc2c3c(ccc2c1)N1Cc2c(ccc4cc(C(=O)N/N=C/c5cc(F)ccc5O)ccc24)N(C3)C1 endpointvalue=1.54

Now, please, on to the next compound.
Please look up its Activity: O=C(N/N=C/c1nccc2ccccc12)c1ccc2c3c(ccc2c1)N1Cc2c(ccc4cc(C(=O)N/N=C/c5nccc6ccccc56)ccc24)N(C3)C1
43.36

----------
Tested on: MRC5
Assay: Cytostatic activity against human MRC5 cells after 72 hrs by MTT assay
Type: ADME, cell-based
Details: MRC5, 72 h
metricName: pIC50
// field semantics: pIC50 = negative decimal log of concentration (mol/L)

smi=O=C(N/N=C/c1cc([N+](=O)[O-])ccc1O)c1ccc2c3c(ccc2c1)N1Cc2c(ccc4cc(C(=O)N/N=C/c5cc([N+](=O)[O-])ccc5O)ccc24)N(C3)C1 endpointvalue=4.05
smi=O=C(N/N=C/c1ccccc1O)c1ccc2c3c(ccc2c1)N1Cc2c(ccc4cc(C(=O)N/N=C/c5ccccc5O)ccc24)N(C3)C1 endpointvalue=6.41
smi=O=C(N/N=C/c1cc(F)ccc1O)c1ccc2c3c(ccc2c1)N1Cc2c(ccc4cc(C(=O)N/N=C/c5cc(F)ccc5O)ccc24)N(C3)C1 endpointvalue=4.54

Give the reported pIC50 for COc1ccc(O)c(/C=N/NC(=O)c2ccc3c4c(ccc3c2)N2Cc3c(ccc5cc(C(=O)N/N=C/c6cc(OC)ccc6O)ccc35)N(C4)C2)c1 (system: MRC5).
6.96

Give the reported pIC50 for COC(=O)c1ccc(O)c(/C=N/NC(=O)c2ccc3c4c(ccc3c2)N2Cc3c(ccc5cc(C(=O)N/N=C/c6cc(C(=O)OC)ccc6O)ccc35)N(C4)C2)c1 (system: MRC5).
4.02

Give the reported pIC50 for Cc1ccc(O)c(/C=N/NC(=O)c2ccc3c4c(ccc3c2)N2Cc3c(ccc5cc(C(=O)N/N=C/c6cc(C)ccc6O)ccc35)N(C4)C2)c1 (system: MRC5).
6.57

----------
Known Activity of a selection of compounds
System: CCRF-CEM
Assay: Cell cycle arrest in human CCRF-CEM cells assessed as accumulation at S phase at 5 times IC50 after 24 hrs by propidium iodide staining-based flow cytometry
Format: functional
Response body: numeric value in %, unit text excluded.

Guide cases for Activity, answers given:
smi=Cc1ccc(O)c(/C=N/NC(=O)c2ccc3c4c(ccc3c2)N2Cc3c(ccc5cc(C(=O)N/N=C/c6cc(C)ccc6O)ccc35)N(C4)C2)c1 unitofmeasurement=% endpointvalue=46.78
smi=COC(=O)c1ccc(O)c(/C=N/NC(=O)c2ccc3c4c(ccc3c2)N2Cc3c(ccc5cc(C(=O)N/N=C/c6cc(C(=O)OC)ccc6O)ccc35)N(C4)C2)c1 unitofmeasurement=% endpointvalue=55.48
smi=O=C(N/N=C/c1ccccc1O)c1ccc2c3c(ccc2c1)N1Cc2c(ccc4cc(C(=O)N/N=C/c5ccccc5O)ccc24)N(C3)C1 unitofmeasurement=% endpointvalue=37.75

Please look up its Activity: O=C(N/N=C/c1cc(O)ccc1O)c1ccc2c3c(ccc2c1)N1Cc2c(ccc4cc(C(=O)N/N=C/c5cc(O)ccc5O)ccc24)N(C3)C1
58.22

Please look up its Activity: COc1ccc(O)c(/C=N/NC(=O)c2ccc3c4c(ccc3c2)N2Cc3c(ccc5cc(C(=O)N/N=C/c6cc(OC)ccc6O)ccc35)N(C4)C2)c1
48.55

Please look up its Activity: O=C(N/N=C/c1nccc2ccccc12)c1ccc2c3c(ccc2c1)N1Cc2c(ccc4cc(C(=O)N/N=C/c5nccc6ccccc56)ccc24)N(C3)C1
39.87

Please look up its Activity: O=C(N/N=C/c1cc(F)ccc1O)c1ccc2c3c(ccc2c1)N1Cc2c(ccc4cc(C(=O)N/N=C/c5cc(F)ccc5O)ccc24)N(C3)C1
42.41

Please look up its Activity: O=C(NN=C(c1ccccn1)c1ccccn1)c1ccc2c3c(ccc2c1)N1Cc2c(ccc4cc(C(=O)NN=C(c5ccccn5)c5ccccn5)ccc24)N(C3)C1
68.14

----------
Test system: MRC5
Assay: Cytostatic activity against human MRC5 cells after 72 hrs by MTT assay
Type: ADME, cell-based
Details: MRC5, 72 h
Known IC50 of a selection of molecules
Response body: numeric value in µM, unit text excluded.

smi=O=C(N/N=C/c1cc(O)ccc1O)c1ccc2c3c(ccc2c1)N1Cc2c(ccc4cc(C(=O)N/N=C/c5cc(O)ccc5O)ccc24)N(C3)C1 endpointvalue=0.55

Now, please, on to the next molecule.
Please look up its IC50: O=C(NN=C(c1ccccn1)c1ccccn1)c1ccc2c3c(ccc2c1)N1Cc2c(ccc4cc(C(=O)NN=C(c5ccccn5)c5ccccn5)ccc24)N(C3)C1
1.03

----------
System: BJ
Assay: Selectivity index, ratio of IC50 for human BJ cells to IC50 for human CEM-DNR cells
Type: functional
metricName: Ratio IC50
Lab note: jot down the number only; don't add units.

smi=O=C(N/N=C/c1cc(Cl)ccc1O)c1ccc2c3c(ccc2c1)N1Cc2c(ccc4cc(C(=O)N/N=C/c5cc(Cl)ccc5O)ccc24)N(C3)C1 endpointvalue=1
smi=O=C(NN=C(c1ccccn1)c1ccccn1)c1ccc2c3c(ccc2c1)N1Cc2c(ccc4cc(C(=O)NN=C(c5ccccn5)c5ccccn5)ccc24)N(C3)C1 endpointvalue=0.7
smi=COc1ccc(O)c(/C=N/NC(=O)c2ccc3c4c(ccc3c2)N2Cc3c(ccc5cc(C(=O)N/N=C/c6cc(OC)ccc6O)ccc35)N(C4)C2)c1 endpointvalue=13.3

Please look up its Ratio IC50: O=C(N/N=C/c1cc([N+](=O)[O-])ccc1O)c1ccc2c3c(ccc2c1)N1Cc2c(ccc4cc(C(=O)N/N=C/c5cc([N+](=O)[O-])ccc5O)ccc24)N(C3)C1
0.9

----------
Test system: Pseudomonas aeruginosa
Test: Antimicrobial activity against multidrug-resistant Pseudomonas aeruginosa A/16575 up to 200 uM after 24 to 48 hrs by broth microdilution method
Type: functional, organism-based
Activity calls are given as the source filed them. No cut-off for these calls is given here.
metricName: Activity

Guide cases for Activity, answers given:
smi=O=C(NN=C(c1ccccn1)c1ccccn1)c1ccc2c3c(ccc2c1)N1Cc2c(ccc4cc(C(=O)NN=C(c5ccccn5)c5ccccn5)ccc24)N(C3)C1 systemtested="Pseudomonas aeruginosa" metricname=Activity endpointvalue=inactive
smi=O=C(N/N=C/c1cc(Cl)ccc1O)c1ccc2c3c(ccc2c1)N1Cc2c(ccc4cc(C(=O)N/N=C/c5cc(Cl)ccc5O)ccc24)N(C3)C1 systemtested="Pseudomonas aeruginosa" metricname=Activity endpointvalue=inactive
smi=O=C(N/N=C/c1cc(F)ccc1O)c1ccc2c3c(ccc2c1)N1Cc2c(ccc4cc(C(=O)N/N=C/c5cc(F)ccc5O)ccc24)N(C3)C1 systemtested="Pseudomonas aeruginosa" metricname=Activity endpointvalue=inactive
smi=O=C(N/N=C/c1ccccc1O)c1ccc2c3c(ccc2c1)N1Cc2c(ccc4cc(C(=O)N/N=C/c5ccccc5O)ccc24)N(C3)C1 systemtested="Pseudomonas aeruginosa" metricname=Activity endpointvalue=inactive
smi=Cc1ccc(O)c(/C=N/NC(=O)c2ccc3c4c(ccc3c2)N2Cc3c(ccc5cc(C(=O)N/N=C/c6cc(C)ccc6O)ccc35)N(C4)C2)c1 systemtested="Pseudomonas aeruginosa" metricname=Activity endpointvalue=inactive

Now, please, on to the next compound.
Please look up its Activity: O=C(N/N=C/c1cc([N+](=O)[O-])ccc1O)c1ccc2c3c(ccc2c1)N1Cc2c(ccc4cc(C(=O)N/N=C/c5cc([N+](=O)[O-])ccc5O)ccc24)N(C3)C1
inactive
